Where do the numbers come from? From patent US5166379A.

# Test details: Lymphocyte Viability Assay (LCV)
# Type: cell-based, murine
# Run parameters: mouse, splenocytes, 0.5 μg/ml; read-out: % LCV (percentage of positive control)
Exam item: assign Yes to entries whose viability is below 60% and No to entries at or above 60%. Note that a value of exactly 60% receives No.

Example cases with answers are listed next.
{"Compound": "C#CC(O)CCCCCCC (centres unmarked) [CH3 (CH2)6 CHOHC≡CH]", "Qualitative label": "No"}
{"Compound": "C#CC(=O)CCCCCCCCCCCCCCCC [CH3 (CH2)15 COC≡CH]", "Qualitative label": "No"}
{"Compound": "C=CC(O)CCCCCCCCCCCCCCCC (centres unmarked) [CH3 (CH2)15 CHOHCH=CH2]", "Qualitative label": "No"}

Query string: Report whether reported viability is lower than 60% (strictly) for C#CC(O)CCCC (centres unmarked) [CH3 (CH2)3 CHOHC≡CH]
Result string: No

Query string: Report whether reported viability is lower than 60% (strictly) for C#CC(O)CCCCCCCCCCCCCCC (centres unmarked) [CH3 (CH2)14 CHOHC≡CH]
Result string: Yes

Query string: Report whether reported viability is lower than 60% (strictly) for C#CC(O)CCCCCCCCCCCCCCCC (centres unmarked) [CH3 (CH2)15 CHOHC≡CH]
Result string: Yes

Query string: Report whether reported viability is lower than 60% (strictly) for C#CC(O)C=CC=CCCCC (centres unmarked) [CH3 (CH2)3 CH=CH--CH=CH--CHOHC≡CH]
Result string: No

Query string: Report whether reported viability is lower than 60% (strictly) for C#CC(O)CCC=CCCCCC (centres unmarked) [CH3 (CH2)4 CH=CHCH2 CH2 CHOHC≡CH]
Result string: Yes

====

# Test system: lymphoid cells (murine BALB/c splenocytes)
# Test details: Lymphocyte Viability Assay (LCV)
# Assay type: cell-based
# Run parameters: 50 μg/ml
Exam item: assign Y to entries whose % LCV (percentage of positive control) is below 7% and N to entries at or above 7%. Note that a value of exactly 7% receives N.

{"Compound": "C#CC(O)C=CCCCCCCCCCCCCCCCC (centres unmarked)", "Qualitative label": "N"}
{"Compound": "C#CC(O)C=CCCCCCCCCCCCCCCCCCCC (centres unmarked)", "Qualitative label": "N"}
{"Compound": "CCCCCC=CC(O)C#CCCCCCCCC (centres unmarked)", "Qualitative label": "N"}

Query string: Report whether reported % LCV (percentage of positive control) is lower than 7% (strictly) for C#CC(O)C=CCCCCCCCCC (centres unmarked)
Result string: Y

====

# Test details: Lymphocyte Viability Assay (LCV)
# Format: cell-based, murine
# Run parameters: mouse, splenocytes, 0.05 μg/ml; read-out: % LCV (percentage of positive control)
Give viability for every item shown.
Numbers only, in %.

Worked examples, 2 molecules total:
{"Molecule": "C#CC(=O)CCCCCCCCCCCCCCCC", "Reported metric": "viability", "Result units": "%", "Readout value": 91}
{"Molecule": "C#CC(O)CCCCCCCCCCCCCCCC (stereo not drawn)", "Reported metric": "viability", "Result units": "%", "Readout value": 49}

Now consider a different molecule.
The recorded viability for entry CCCCCCCCCCCCCCC/C=C/C(O)C#N (stereo not drawn) equals 132
